target: BDNF/NT-3 growth factors receptor (Rattus norvegicus); experiment: Agonist activity at TrkB in E17 rat primary rat cortical neurons assessed as AKT phosphorylation at Ser 473 at 500 nM after 15 mins by ELISA; format: functional
The source made the active and inactive calls. The calls are words filed in the database; no cut-off is given here.
Measurement Type: Activity

* CN(C)c1ccc(-c2cc(=O)c3ccc(O)c(O)c3o2)cc1 | Active
* O=c1cc(-c2ccc(F)cc2)[nH]c2c(O)c(O)ccc12 | inactive
* O=c1cc(-c2cncnc2)oc2c(O)c(O)ccc12 | Active
* O=c1cc(-c2ccccc2)[nH]c2c(O)c(O)ccc12 | inactive

----------
biological target: BDNF/NT-3 growth factors receptor (Rattus norvegicus) (UniProt Q63604); test: Agonist activity at TrkB in E17 rat primary cortical neurons assessed as AKT phosphorylation at Ser 473 at 500 nM after 15 mins by ELISA; type: functional, cell-based; conditions: Cerebral cortex neuron
Sequence (Q63604 whole entry): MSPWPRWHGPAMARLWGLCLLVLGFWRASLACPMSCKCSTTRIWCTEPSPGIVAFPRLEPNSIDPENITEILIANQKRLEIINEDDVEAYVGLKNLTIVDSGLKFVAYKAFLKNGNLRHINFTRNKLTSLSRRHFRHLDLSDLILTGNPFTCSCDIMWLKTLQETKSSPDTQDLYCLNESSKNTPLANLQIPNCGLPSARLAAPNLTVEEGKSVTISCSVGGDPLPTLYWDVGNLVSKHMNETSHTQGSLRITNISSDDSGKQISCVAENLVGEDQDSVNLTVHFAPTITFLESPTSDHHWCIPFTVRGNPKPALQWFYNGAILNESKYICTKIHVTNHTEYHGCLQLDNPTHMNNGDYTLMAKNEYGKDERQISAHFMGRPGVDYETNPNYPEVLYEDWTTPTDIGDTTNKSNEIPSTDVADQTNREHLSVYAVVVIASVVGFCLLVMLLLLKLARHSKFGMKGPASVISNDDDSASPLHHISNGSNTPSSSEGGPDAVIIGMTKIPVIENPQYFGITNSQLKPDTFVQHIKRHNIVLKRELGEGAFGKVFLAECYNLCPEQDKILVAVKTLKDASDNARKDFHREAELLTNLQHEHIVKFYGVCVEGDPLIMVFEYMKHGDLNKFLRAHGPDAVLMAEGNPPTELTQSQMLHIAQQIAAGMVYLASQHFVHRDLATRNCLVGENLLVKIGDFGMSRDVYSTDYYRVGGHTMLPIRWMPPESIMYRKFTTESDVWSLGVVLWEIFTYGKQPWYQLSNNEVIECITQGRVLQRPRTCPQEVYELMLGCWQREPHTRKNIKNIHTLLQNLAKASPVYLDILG
Active and inactive are the calls of the source. The rule behind the calls is not given here.
Labels: active, inactive

• COc1ccc2c(=O)cc(-c3ccccc3)oc2c1OC = inactive
• COc1ccc(-c2cc(=O)c3ccc(O)cc3o2)cc1 = inactive
• O=c1cc(-c2ccccc2)oc2cc(O)c(O)c(O)c12 = inactive
• O=c1cc(-c2ccccc2)oc2cc(O)cc(O)c12 = inactive
• O=c1cc(-c2cc(O)cc(O)c2)oc2ccccc12 = inactive
• O=c1cc(-c2cccc(O)c2O)oc2ccccc12 = inactive
• COc1cccc(-c2cc(=O)c3ccc(OC)cc3o2)c1 = inactive
• O=c1cc(-c2ccccc2O)oc2c(O)c(O)ccc12 = active
• O=c1cc(-c2cccc(O)c2)oc2c1ccc1ccccc12 = inactive
• O=c1cc(-c2ccccc2)oc2ccccc12 = inactive
• COc1cccc(-c2oc3ccccc3c(=O)c2OC)c1 = inactive
• COc1ccc(-c2c(C)c3ccc(O)cc3oc2=O)cc1 = inactive
• O=c1cc(-c2ccccc2)oc2c(O)c(O)cc(O)c12 = active
• O=c1cc(-c2ccccc2)oc2cccc(O)c12 = inactive
• O=c1cc(-c2ccccc2)oc2ccc(O)c(O)c12 = inactive
• O=c1c(O)c(-c2ccccc2O)oc2ccccc12 = inactive
• C[S+](C)[O-] = inactive
• COc1cc(-c2oc3cc(O)ccc3c(=O)c2O)cc(OC)c1OC = inactive
• O=c1cc(-c2ccccc2)oc2cc(O)c(O)cc12 = active
• O=c1c(O)c(-c2cccc(O)c2)oc2cc(O)ccc12 = inactive
• O=c1cc(-c2ccc(O)c(O)c2)oc2ccccc12 = inactive
• O=c1cc(-c2ccc(O)cc2O)oc2ccccc12 = inactive
• COc1cccc(-c2cc(=O)c3ccc(O)cc3o2)c1 = inactive
• O=c1cc(-c2cccc(O)c2)oc2ccccc12 = inactive
• COc1ccccc1-c1cc2ccc(O)cc2oc1=O = inactive
• O=c1c(O)c(-c2ccccc2O)oc2c(O)c(O)ccc12 = active
• O=c1cc(-c2ccccc2)oc2ccc(O)cc12 = inactive

----------
target: BDNF/NT-3 growth factors receptor (Rattus norvegicus); test: Agonist activity at TrkB in E17 rat primary cortical neurons assessed as AKT phosphorylation at Ser 473 at 500 nM after 15 mins by ELISA; assay type: functional, cell-based; conditions: Cerebral cortex neuron
Active and inactive are the calls of the source. The rule behind the calls is not given here.
Labels: true (1) (active), false (0) (inactive)

• O=c1c(O)c(-c2cccc(O)c2)oc2ccccc12 = false (0)
• O=c1cc(-c2ccc(O)cc2)oc2ccccc12 = false (0)
• O=c1c(O)c(-c2ccccc2)oc2cc(O)ccc12 = true (1)
• O=c1c(-c2ccccc2)coc2cc(O)ccc12 = false (0)
• O=c1c(O)c(-c2ccccc2)oc2ccccc12 = false (0)
• COc1cccc(-c2cc(=O)c3ccccc3o2)c1OC = false (0)
• COc1ccc2c(=O)cc(-c3ccccc3)oc2c1O = true (1)
• O=c1cc(-c2ccc(O)c(O)c2)oc2cc(O)ccc12 = false (0)
• O=c1cc(-c2cccc(O)c2)oc2cc(O)ccc12 = true (1)
• O=c1cc(-c2ccccc2O)oc2ccccc12 = false (0)
• COc1c(O)ccc2c(=O)c(-c3ccc(Cl)cc3)coc12 = false (0)
• O=c1cc(-c2ccccc2)oc2cc(O)ccc12 = false (0)
• O=c1cc(-c2cccc(O)c2)oc2cc(O)c(O)cc12 = true (1)

Cited source: ChEMBL document CHEMBL1800034
